# System: Saos-2 cell line
# Format: cell-based
# condition description: human
recorded metric: IC50

// IC50 value for `NC(=O)[C@H](CCCCNCCCCCC[P+](c1ccccc1)(c1ccccc1)c1ccccc1)NC(=O)[C@H](Cc1ccc(OP(=O)(O)O)cc1)NC(=O)[C@H](Cc1ccccc1)NC(=O)[C@H](Cc1ccccc1)NC(=O)CCCc1ccc2ccc3cccc4ccc1c2c34` : ~10 µM
